TGI values by entry
tested on: KM12 colon; assay: NCI tumour cell line growth inhibition, 48 h
measuredAttribute: TGI

NCCNc1nc2ccc(F)cc2c2c(=O)c3cc(F)ccc3sc12: 3.46 µM
Nc1ccccc1-n1c2c(c3ccccc3c1=O)C(=O)c1ccccc1-2: > 100 µM
O=C1/C(=C/c2ccc([N+](=O)[O-])cc2)Sc2scc(-c3cccc([N+](=O)[O-])c3)[n+]21: 24.6 µM
Fc1c(F)c(F)c(CSc2nc3ccccc3[nH]2)c(F)c1F: > 100 µM
CC(NC(=O)c1ccc(OP(=O)(OCc2ccc([N+](=O)[O-])o2)N(C)CCCCCl)cc1)c1ccc(OCC2CCCCC2)c(C(N)=O)c1 (stereo unspecified): 13.5 µM
O=C1c2ccccc2-c2c1c1ccc3ccccc3c1n2-c1ccccc1: > 100 µM
O=C(c1nc2ccc(Cl)cc2[nH]c1=O)C(O)c1cccc([N+](=O)[O-])c1 (stereo unspecified): > 100 µM
CN1CCC(n2cnc(-c3ccc(F)cc3)c2-c2ccnc(Nc3ccccc3)n2)CC1: > 25 µM
C[C@@H]1C[C@@H]2C(=O)N(c3ccccc3)C(=O)[C@@H]2c2[nH]c3ccc(Br)cc3c21: 75.4 µM
COc1ccccc1C(=O)Nc1ccc(Cl)c(C(=O)OC(C)C)c1: > 100 µM
CCCCCCCCCCCc1cc(=O)c2c(O)cccc2o1: > 100 µM
COC(=O)c1ccc(N/C=C(/C#N)c2ccsc2)cc1: 32.2 µM
O=C(O)c1ccc2[nH]c(=O)oc2c1: > 100 µM
Cc1cccc(/C=N/N=C(\N)NO)n1: > 100 µM
NC(=S)N/N=C(/CCN1CCCC1)CC(C1=C(O)C2=CCCCC2OC1=O)c1ccccc1 (stereo unspecified): > 100 µM
O=C1Nc2cc(-c3ccc(O)cc3)ccc2/C1=C/c1ccc[nH]1: > 100 µM
COC(=O)C1=C(C(=O)OC)N(c2ccncc2)C(c2ccco2)=CC1c1ccccc1[N+](=O)[O-] (stereo unspecified): 3.38 µM
CC(NNC(=S)N1CCN(c2ccccn2)CC1)c1cccc[n+]1[O-] (stereo unspecified): > 100 µM
CCC1C[N+]2=C(c3cc(OC)c(OC)cc3CC2)c2c1cc1n2CCc2cc(OC)c(OC)cc2-1 (stereo unspecified): 10.9 µM
CCOC(=O)c1cccc(N=Nc2ncc(/C=C/C(=O)OC)[nH]2)c1: 82.2 µM
O=C(O)C(C(F)(F)F)C(F)(F)F (tested in a mixture with another compound): > 100 µM
O=C(Cc1ccccc1)Nc1nc2ccc(Cl)cc2c2nc(-c3ccco3)nn12: > 100 µM
Cc1cc(=O)[nH]c(S(=O)(=O)NC(=O)Nc2cccc(Cl)c2)n1: 32.3 µM
CCOc1cc(CCNC)c2c(ccc3ccc(OC)c(O)c32)c1OC: 26.4 µM
COc1ccc(-c2cncn2-c2ccc(-c3nc4cc(OC)c(OC)c(OC)c4s3)cc2)cc1N: > 100 µM
COc1ccccc1CC1(O)OC(=O)c2ccccc21 (stereo unspecified): > 100 µM
CN1CCN(c2ccc3nc(-c4ccc5nc(CCCc6ccc(N(CCCl)CCCl)cc6)[nH]c5c4)[nH]c3c2)CC1: > 100 µM
CC(=O)NC(CCCCN(Cc1ccccc1)C(=O)N(C)N=O)C(=O)NCc1ccccc1 (stereo unspecified): > 100 µM
OCCCN=C1N=C(Cl)/C(=C\c2ccccc2)N1: > 100 µM
O=C(Cc1ccccc1)N/N=C(/c1nc2ccc([N+](=O)[O-])cc2[nH]c1=O)C(O)c1ccco1 (stereo unspecified): > 100 µM
NC(=S)NN=C1Cc2ccccc2C1: > 100 µM
Cc1ccc([N+](=O)[O-])cc1S(=O)(=O)Nc1ccc(C2=NN(C(=O)c3ccccc3)C(c3ccccc3O)C2)cc1 (stereo unspecified): > 100 µM
O=c1c2cc(Br)ccc2n(C2OC(CO)C(O)C(O)C2O)c(=S)n1-c1ccccc1 (stereo unspecified): > 100 µM
Cn1c(=S)c2[nH]c(SCc3cccnc3)nc2n(C)c1=O: > 100 µM
Nc1ncnc2c1N=CN(Oc1ccccc1)N2: > 100 µM
N#Cc1n[nH]n(-c2ccccc2)c1=O: > 100 µM
CCOC1Oc2ccccc2-c2nc(N)ncc21 (stereo unspecified): > 100 µM
O=CCC(O)C(O)C(O)CO (stereo unspecified): > 100 µM
Fc1cccc(-c2nc(-c3c[nH]c4ncccc34)cs2)c1: > 100 µM
Cc1ccc(S(=O)(=O)Nc2cc(=O)[nH]c3c2CCC3)cc1: > 100 µM
O=S(=O)(N1CCCCN(S(=O)(=O)C(F)(F)F)CCCN(S(=O)(=O)C(F)(F)F)CCCCN(S(=O)(=O)C(F)(F)F)CCCN(S(=O)(=O)C(F)(F)F)CCCCN(S(=O)(=O)C(F)(F)F)CCCN(S(=O)(=O)C(F)(F)F)CCCCN(S(=O)(=O)C(F)(F)F)CCC1)C(F)(F)F: > 31.6 µM
